Test system: rodent lifetime carcinogenesis bioassay, tumor incidence TD50
Test: carcinogenic potency in animals, long-term in vivo studies, CPDB compilation (AID 1745844)
Settings: rat; strain Fischer 344; males; by gavage; site: any site (literature study); lesion: several types; types named in the paper; dosed 25 weeks; study length 118 weeks
Endpoint Name: TD50 (mg/kg/day)

> print(dat)
                             chem.smiles                              assay.system  endpoint.name  measured
1  Brc1cc(Br)c(-c2cc(Br)c(Br)cc2Br)cc1Br  rodent lifetime carcinogenesis bioassay, tumor incidence TD50           TD50    0.0645

* * *

Test system: rodent lifetime carcinogenesis bioassay, tumor incidence TD50
Assay: carcinogenic potency in animals, long-term in vivo studies, CPDB compilation (AID 1745844)
Conditions: rat; strain Fischer 344; males; in feed; site: liver; lesion: hepatocellular adenoma + hepatocellular carcinoma + neoplastic nodule; dosed 104 weeks; study length 104 weeks
The entries below come with measured TD50 values attached.
Endpoint Name: TD50

> print(dat)
                                   compound  endpoint.name         measured
1  ClC1(Cl)C2(Cl)C3(Cl)C4(Cl)C(Cl)(Cl)C5(Cl)C3(Cl)C1(Cl)C5(Cl)C24Cl (stereo not drawn)           TD50  0.825 mg/kg/day
2  O=C1c2ccccc2-c2ccc3c4c(ccc1c24)-c1ccccc1C3=O           TD50   2790 mg/kg/day
3  C[C@H]1CCCC(=O)CCC/C=C/c2cc(O)cc(O)c2C(=O)O1           TD50    950 mg/kg/day

* * *

Test system: rodent lifetime carcinogenesis bioassay, tumor incidence TD50
Test: carcinogenic potency in animals, long-term in vivo studies, CPDB compilation (AID 1745844)
Settings: mouse; strain B6C3F1; males; by gavage; site: forestomach; lesion: squamous-cell carcinoma; dosed 102 weeks; study length 103 weeks
Endpoint Name: TD50

> print(dat)
   chem.smiles                              assay.system        measured
1    CC(C)=CCl  rodent lifetime carcinogenesis bioassay, tumor incidence TD50  17.2 mg/kg/day

* * *

System: rodent lifetime carcinogenesis bioassay, tumor incidence TD50
Experiment: carcinogenic potency in animals, long-term in vivo studies, CPDB compilation (AID 1745844)
Conditions: rat; strain Fischer 344; males; by gavage; site: liver; lesion: hepatocellular carcinoma + neoplastic nodule; dosed 103 weeks; study length 105 weeks
Endpoint Name: TD50 (mg/kg/day)

> print(dat)
                chem.smiles      units  measured
1  Nc1cc([N+](=O)[O-])ccc1O  mg/kg/day      1300

* * *

Test system: rodent lifetime carcinogenesis bioassay, tumor incidence TD50
Assay: carcinogenic potency in animals, long-term in vivo studies, CPDB compilation (AID 1745844)
Details: rat; strain Fischer 344; females; in feed; site: adrenal medulla; lesion: pheochromocytoma, malignant + pheochromocytoma, benign; dosed 103 weeks; study length 105 weeks
Endpoint Name: TD50 (mg/kg/day)

> print(dat)
                                chem.smiles                              assay.system  measured
1  CCN=c1cc2oc3cc(NCC)c(C)cc3c(-c3ccccc3C(=O)OCC)c-2cc1C  rodent lifetime carcinogenesis bioassay, tumor incidence TD50      47.1

* * *

Test system: rodent lifetime carcinogenesis bioassay, tumor incidence TD50
Experiment: carcinogenic potency in animals, long-term in vivo studies, CPDB compilation (AID 1745844)
Conditions: rat; strain Charles River CD (Sprague-Dawley); males; in feed; site: liver; lesion: several types; types named in the paper; dosed 64 weeks; study length 68 weeks
Calls of active or inactive are those of the source. The rule behind the calls is not given here.
Endpoint Name: TD50

> print(dat)
   chem.smiles                              assay.system  endpoint.name                   measured
1   Cc1ccccc1N  rodent lifetime carcinogenesis bioassay, tumor incidence TD50           TD50  2960 mg/kg/day (inactive)

* * *

Test system: rodent lifetime carcinogenesis bioassay, tumor incidence TD50
Assay: carcinogenic potency in animals, long-term in vivo studies, CPDB compilation (AID 1745844)
Details: rat; strain Fischer 344; males; in drinking water; site: liver; lesion: hepatocellular carcinoma; dosed 30 weeks; study length 95 weeks
Endpoint Name: TD50

> print(dat)
       chem.smiles  endpoint.name        measured
1  CCN=[N+](C)[O-]           TD50  18.2 mg/kg/day

* * *

Test system: rodent lifetime carcinogenesis bioassay, tumor incidence TD50
Assay: carcinogenic potency in animals, long-term in vivo studies, CPDB compilation (AID 1745844)
Settings: rat; strain Fischer 344; males; in feed; site: urinary bladder; lesion: transitional-cell carcinoma + transitional-cell papilloma; dosed 103 weeks; study length 105 weeks
Endpoint Name: TD50 (mg/kg/day)

> print(dat)
       chem.smiles      units  measured
1  Nc1nc(N)nc(N)n1  mg/kg/day       679

* * *

The entries below come with measured TD50 values attached.
Tested on: rodent lifetime carcinogenesis bioassay, tumor incidence TD50
Assay: carcinogenic potency in animals, long-term in vivo studies, CPDB compilation (AID 1745844)
Details: rat; strain Charles River CD (Sprague-Dawley); males; in drinking water; site: liver; lesion: hepatocellular carcinoma; dosed 104 weeks; study length 104 weeks
Endpoint Name: TD50 (mg/kg/day)

> print(dat)
                                   compound                              assay.system  endpoint.name  measured
1  C[C@]12C=CC(=O)C=C1CC[C@@H]1[C@@H]2[C@@H](O)C[C@@]2(C)[C@H]1CC[C@]2(O)C(=O)CO  rodent lifetime carcinogenesis bioassay, tumor incidence TD50           TD50      6.58
2  CC1(C)O[C@@H]2C[C@H]3[C@@H]4CCC5=CC(=O)C=C[C@]5(C)[C@@]4(F)[C@@H](O)C[C@]3(C)[C@]2(C(=O)CO)O1  rodent lifetime carcinogenesis bioassay, tumor incidence TD50           TD50     0.141
3  CCCC1O[C@@H]2C[C@H]3[C@@H]4CCC5=CC(=O)C=C[C@]5(C)[C@H]4[C@@H](O)C[C@]3(C)[C@]2(C(=O)CO)O1 (stereo partly drawn)  rodent lifetime carcinogenesis bioassay, tumor incidence TD50           TD50     0.822

* * *

Test system: rodent lifetime carcinogenesis bioassay, tumor incidence TD50
Assay: carcinogenic potency in animals, long-term in vivo studies, CPDB compilation (AID 1745844)
Settings: mouse; strain B6C3F1; males; in feed; site: liver; lesion: hepatocellular adenoma; dosed 72 weeks; study length 72 weeks
Endpoint Name: TD50

> print(dat)
                                   compound                              assay.system  endpoint.name        measured
1  ClC1=C(Cl)C2(Cl)C3C(Cl)C(Cl)CC3C1(Cl)C2(Cl)Cl (stereo unspecified)  rodent lifetime carcinogenesis bioassay, tumor incidence TD50           TD50  1.96 mg/kg/day

* * *

Test system: rodent lifetime carcinogenesis bioassay, tumor incidence TD50
Experiment: carcinogenic potency in animals, long-term in vivo studies, CPDB compilation (AID 1745844)
Conditions: mouse; strain Swiss albino; males; in drinking water; site: liver; lesion: several types; types named in the paper; dosed 109 weeks; study length 109 weeks
Endpoint Name: TD50

> print(dat)
    chem.smiles       measured
1  CCCCN(N)CCCC  105 mg/kg/day

* * *

Tested on: rodent lifetime carcinogenesis bioassay, tumor incidence TD50
Assay: carcinogenic potency in animals, long-term in vivo studies, CPDB compilation (AID 1745844)
Conditions: mouse; strain Charles River CD1; males; in drinking water; site: all sites; lesion: hemangiosarcoma; dosed 52 weeks; study length 52 weeks
Endpoint Name: TD50 (mg/kg/day)

> print(dat)
   chem.smiles  endpoint.name  measured
1       CN(C)N           TD50      21.7

* * *

System: rodent lifetime carcinogenesis bioassay, tumor incidence TD50
Test: carcinogenic potency in animals, long-term in vivo studies, CPDB compilation (AID 1745844)
Conditions: rat; strain Sprague-Dawley; males; inhaled; site: several sites; sites named in the paper; lesion: several types; types named in the paper; dosed 113 weeks; study length 122 weeks
Endpoint Name: TD50

> print(dat)
   chem.smiles       measured
1        COCCl  5.5 mg/kg/day

* * *

System: rodent lifetime carcinogenesis bioassay, tumor incidence TD50
Assay: carcinogenic potency in animals, long-term in vivo studies, CPDB compilation (AID 1745844)
Conditions: rat; strain Fischer 344; females; in drinking water; site: thyroid gland; lesion: c-cell adenoma; dosed 98 weeks; study length 104 weeks
Endpoint Name: TD50 (mg/kg/day)

> print(dat)
                                chem.smiles  endpoint.name      units  measured
1  Cc1ccc(S(=O)(=O)Oc2ccc(N=Nc3ccc(-c4ccc(N=Nc5c(O)ccc6cc(S(=O)(=O)O)cc(S(=O)(=O)O)c56)c(C)c4)cc3C)cc2)cc1           TD50  mg/kg/day      48.7

Measured values drawn from PubChem BioAssay AID1745844 for this set.
